Tested on: 429239-143-T-J1-PDC complex spheroid viability
assay comment: Anticancer human tumor 429239-143-T-J1-PDC patient-derived small cell lung carcinoma cell line growth inhibition [POLQ]
study conditions: second compound 3.16 µM; first compound 0.1 µM; stronger effect = lower value
recorded endpoint: viability, T/C (%)
Give bare numbers, in %.

Use the examples below as a reference point.
• CCc1c2c(nc3ccc(O)cc13)-c1cc3c(c(=O)n1C2)COC(=O)[C@]3(O)CC + Nc1ccc(C#CCN(C(=O)Cc2ncc(C(F)(F)F)cc2C(F)(F)F)c2ccc(F)cc2)nn1 = 8.33
• C=CCn1c(=O)c2cnc(Nc3ccc(N4CCN(C)CC4)cc3)nc2n1-c1cccc(C(C)(C)O)n1 + Nc1ccc(C#CCN(C(=O)Cc2ncc(C(F)(F)F)cc2C(F)(F)F)c2ccc(F)cc2)nn1 = 103

Please examine the following record next.
Problem: Please report the recorded viability, T/C for CCc1cc2c(N3CCc4c(cc(Cn5ccnc5)cc4-c4cn(C)nc4C(F)(F)F)C3=O)ccnc2c(OC)n1 + COC1C(OC(N)=O)C(O)C(Oc2ccc3c(O)c(NC(=O)c4ccc(O)c(CC=C(C)C)c4)c(=O)oc3c2C)OC1(C)C .
Result: 74.8

====

Test system: 429239-143-T-J1-PDC complex spheroid viability
assay comment: Anticancer human tumor 429239-143-T-J1-PDC cell line growth inhibition [POLQ];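 also: luminescence signal used as surrogate measure of viable cells; spheroids exposed to compounds for seven days before readout; 100% = DMSO vehicle control viability as luminescence relative to vehicle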
study conditions: second compound 3.16 µM; first compound 0.316 µM; stronger effect = lower value
recorded endpoint: viability, T/C (%)
Answers are plain numbers, in %.

* CNCc1ccc(-c2[nH]c3cc(F)cc4c3c2CCNC4=O)cc1 + COC1C(OC(N)=O)C(O)C(Oc2ccc3c(O)c(NC(=O)c4ccc(O)c(CC=C(C)C)c4)c(=O)oc3c2C)OC1(C)C | 87.1
* CC1COCCN1c1cc(C2(O)CC3CCC(C2)O3)c2cnn(-c3ccn[nH]3)c2n1 (stereo not given) + Nc1ccc(C#CCN(C(=O)Cc2ncc(C(F)(F)F)cc2C(F)(F)F)c2ccc(F)cc2)nn1 | 43.1
* COc1cc(C2c3cc4c(cc3C(OC3OC5COC(C)OC5C(O)C3O)C3COC(=O)C23)OCO4)cc(OC)c1O (stereo not given) + Nc1ccc(C#CCN(C(=O)Cc2ncc(C(F)(F)F)cc2C(F)(F)F)c2ccc(F)cc2)nn1 | 71.3
* C=CC(=O)N1CCN(c2nc(=O)n(-c3c(C)ccnc3C(C)C)c3nc(-c4c(O)cccc4F)c(F)cc23)C(C)C1 (stereo not given) + COC1C(OC(N)=O)C(O)C(Oc2ccc3c(O)c(NC(=O)c4ccc(O)c(CC=C(C)C)c4)c(=O)oc3c2C)OC1(C)C | 95.3

Please examine the following record next.
Problem: Missing value: viability, T/C, 429239-143-T-J1-PDC complex spheroid viability, entry C=CC(=O)N1CCN(c2nc(=O)n(-c3c(C)ccnc3C(C)C)c3nc(-c4c(O)cccc4F)c(F)cc23)C(C)C1 (stereo not given) + Nc1ccc(C#CCN(C(=O)Cc2ncc(C(F)(F)F)cc2C(F)(F)F)c2ccc(F)cc2)nn1 . Fill in?
Result: 109

====

Hi there, I'd appreciate the recorded viability, T/C for every entry that follows.
System: 429239-143-T-J1-PDC complex spheroid viability
assay comment: Anticancer human tumor 429239-143-T-J1-PDC cell line growth inhibition [POLQ];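 also: luminescence signal used as surrogate measure of viable cells; spheroids exposed to compounds for seven days before readout; 100% = DMSO vehicle control viability as luminescence relative to vehicle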
study conditions: second compound 0.316 µM; first compound 0.0316 µM; stronger effect = lower value
Numbers only, in %.

Use the examples below as a reference point.
• CC1COCCN1c1cc(C2(O)CC3CCC(C2)O3)c2cnn(-c3ccn[nH]3)c2n1 (stereo not given) + Nc1ccc(C#CCN(C(=O)Cc2ncc(C(F)(F)F)cc2C(F)(F)F)c2ccc(F)cc2)nn1 = 83.9
• COc1ccc([C@@H](O)c2cc(-c3ncnc4cc(N5CCOCC5)ccc34)c(F)cc2Cl)nn1 + COC1C(OC(N)=O)C(O)C(Oc2ccc3c(O)c(NC(=O)c4ccc(O)c(CC=C(C)C)c4)c(=O)oc3c2C)OC1(C)C = 109
• Cn1ncnc1[C@H]1c2n[nH]c(=O)c3cc(F)cc(c23)N[C@@H]1c1ccc(F)cc1 + Nc1ccc(C#CCN(C(=O)Cc2ncc(C(F)(F)F)cc2C(F)(F)F)c2ccc(F)cc2)nn1 = 79.8
• CCc1cc2c(N3CCc4c(cc(Cn5ccnc5)cc4-c4cn(C)nc4C(F)(F)F)C3=O)ccnc2c(OC)n1 + COC1C(OC(N)=O)C(O)C(Oc2ccc3c(O)c(NC(=O)c4ccc(O)c(CC=C(C)C)c4)c(=O)oc3c2C)OC1(C)C = 86.2

Go through the list and state viability, T/C for each entry.
1. CCc1cc2c(N3CCc4c(cc(Cn5ccnc5)cc4-c4cn(C)nc4C(F)(F)F)C3=O)cc(C)nc2c(OC)n1 + Nc1ccc(C#CCN(C(=O)Cc2ncc(C(F)(F)F)cc2C(F)(F)F)c2ccc(F)cc2)nn1
2. O=C(Nc1ccc(O)c(NS(=O)(=O)c2ccc(F)cc2)c1)c1ccc(-c2ccccc2)cc1 + Cc1cccc(N(C)C(=O)C2C(O)CCN2c2nc(C)cc(C(F)(F)F)c2C#N)c1
3. CNCc1ccc(-c2[nH]c3cc(F)cc4c3c2CCNC4=O)cc1 + Cc1cccc(N(C)C(=O)C2C(O)CCN2c2nc(C)cc(C(F)(F)F)c2C#N)c1
4. C=CCn1c(=O)c2cnc(Nc3ccc(N4CCN(C)CC4)cc3)nc2n1-c1cccc(C(C)(C)O)n1 + Cc1cccc(N(C)C(=O)C2C(O)CCN2c2nc(C)cc(C(F)(F)F)c2C#N)c1
5. COc1cc(C2c3cc4c(cc3C(OC3OC5COC(C)OC5C(O)C3O)C3COC(=O)C23)OCO4)cc(OC)c1O (stereo not given) + Cc1cccc(N(C)C(=O)C2C(O)CCN2c2nc(C)cc(C(F)(F)F)c2C#N)c1
6. COc1cccc2c1C(=O)c1c(O)c3c(c(O)c1C2=O)CC(O)(C(=O)CO)CC3OC1CC(N)C(O)C(C)O1 (stereo not given) + Cc1cccc(N(C)C(=O)C2C(O)CCN2c2nc(C)cc(C(F)(F)F)c2C#N)c1

Result:
[103, 100, 97.8, 106, 92.3, 69.1]

Go through the list and state viability, T/C for each entry.
1. C#Cc1c(F)ccc2cc(O)cc(-c3ncc4c(N5CC6CCC(C5)N6)nc(OCC56CCCN5CC(F)C6)nc4c3F)c12 (stereo not given) + COC1C(OC(N)=O)C(O)C(Oc2ccc3c(O)c(NC(=O)c4ccc(O)c(CC=C(C)C)c4)c(=O)oc3c2C)OC1(C)C
2. CC1COCCN1c1cc(C2(S(C)(=N)=O)CC2)nc(-c2ccnc3[nH]ccc23)n1 (stereo not given) + COC1C(OC(N)=O)C(O)C(Oc2ccc3c(O)c(NC(=O)c4ccc(O)c(CC=C(C)C)c4)c(=O)oc3c2C)OC1(C)C
3. O=c1[nH]cc(F)c(=O)[nH]1 + Nc1ccc(C#CCN(C(=O)Cc2ncc(C(F)(F)F)cc2C(F)(F)F)c2ccc(F)cc2)nn1
4. CCc1cc2c(N3CCc4c(cc(Cn5ccnc5)cc4-c4cn(C)nc4C(F)(F)F)C3=O)ccnc2c(OC)n1 + Nc1ccc(C#CCN(C(=O)Cc2ncc(C(F)(F)F)cc2C(F)(F)F)c2ccc(F)cc2)nn1
5. Cn1ncnc1[C@H]1c2n[nH]c(=O)c3cc(F)cc(c23)N[C@@H]1c1ccc(F)cc1 + COC1C(OC(N)=O)C(O)C(Oc2ccc3c(O)c(NC(=O)c4ccc(O)c(CC=C(C)C)c4)c(=O)oc3c2C)OC1(C)C
6. CC[C@@]1(O)C(=O)OCc2c1cc1n(c2=O)Cc2cc3c(CN(C)C)c(O)ccc3nc2-1 + Cc1cccc(N(C)C(=O)C2C(O)CCN2c2nc(C)cc(C(F)(F)F)c2C#N)c1

Result:
1. 104
2. 103
3. 100
4. 112
5. 45.7
6. 14.9

Go through the list and state viability, T/C for each entry.
1. CC(C)n1c(=O)n(C)c2cnc3cc(F)c(-c4ccc(OCCCN5CCCCC5)nc4)cc3c21 + Cc1cccc(N(C)C(=O)C2C(O)CCN2c2nc(C)cc(C(F)(F)F)c2C#N)c1
2. CCCS(=O)(=O)Nc1ccc(F)c(C(=O)c2c[nH]c3ncc(-c4ccc(Cl)cc4)cc23)c1F + Cc1cccc(N(C)C(=O)C2C(O)CCN2c2nc(C)cc(C(F)(F)F)c2C#N)c1
3. Cn1ncnc1[C@H]1c2n[nH]c(=O)c3cc(F)cc(c23)N[C@@H]1c1ccc(F)cc1 + Cc1cccc(N(C)C(=O)C2C(O)CCN2c2nc(C)cc(C(F)(F)F)c2C#N)c1
4. C=CCn1c(=O)c2cnc(Nc3ccc(N4CCN(C)CC4)cc3)nc2n1-c1cccc(C(C)(C)O)n1 + COC1C(OC(N)=O)C(O)C(Oc2ccc3c(O)c(NC(=O)c4ccc(O)c(CC=C(C)C)c4)c(=O)oc3c2C)OC1(C)C

Result:
1. 85
2. 99.5
3. 44.7
4. 107

Source of measurements: PubChem BioAssay AID1963845
